Target: NACHT, LRR and PYD domains-containing protein 3 (Homo sapiens, UniProt Q96P20)
Sequence (Q96P20 whole entry, the tested form may be a part): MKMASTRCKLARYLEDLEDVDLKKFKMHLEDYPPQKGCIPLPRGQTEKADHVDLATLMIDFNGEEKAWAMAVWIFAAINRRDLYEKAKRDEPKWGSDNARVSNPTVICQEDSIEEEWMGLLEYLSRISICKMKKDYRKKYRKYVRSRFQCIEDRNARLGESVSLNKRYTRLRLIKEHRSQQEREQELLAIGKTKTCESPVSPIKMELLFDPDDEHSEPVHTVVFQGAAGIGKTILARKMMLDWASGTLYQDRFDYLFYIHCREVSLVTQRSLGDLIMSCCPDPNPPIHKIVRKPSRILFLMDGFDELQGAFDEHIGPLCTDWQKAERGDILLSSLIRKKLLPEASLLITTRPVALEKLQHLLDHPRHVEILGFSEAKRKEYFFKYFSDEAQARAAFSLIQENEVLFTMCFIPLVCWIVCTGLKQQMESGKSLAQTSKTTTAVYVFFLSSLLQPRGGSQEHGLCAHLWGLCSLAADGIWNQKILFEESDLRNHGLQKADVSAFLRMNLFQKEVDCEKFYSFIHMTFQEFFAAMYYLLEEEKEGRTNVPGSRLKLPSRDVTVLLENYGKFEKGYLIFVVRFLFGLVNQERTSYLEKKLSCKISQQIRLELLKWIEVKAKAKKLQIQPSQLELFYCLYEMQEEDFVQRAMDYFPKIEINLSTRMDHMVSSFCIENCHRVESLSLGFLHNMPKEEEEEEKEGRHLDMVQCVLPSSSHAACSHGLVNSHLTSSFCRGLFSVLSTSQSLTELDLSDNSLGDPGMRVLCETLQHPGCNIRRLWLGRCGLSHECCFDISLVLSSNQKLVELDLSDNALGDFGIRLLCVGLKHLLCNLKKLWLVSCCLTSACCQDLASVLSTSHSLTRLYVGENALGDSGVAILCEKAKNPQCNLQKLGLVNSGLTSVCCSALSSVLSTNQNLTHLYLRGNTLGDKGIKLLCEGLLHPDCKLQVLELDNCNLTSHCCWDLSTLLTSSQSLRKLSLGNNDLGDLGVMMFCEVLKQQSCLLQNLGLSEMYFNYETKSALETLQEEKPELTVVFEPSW
Assay: Evaluation of NLRP3 Inflammasome Inhibitory Activity Assay
MEASURE NAME: log10 of IC50 (log10 of the value in nM)
// do not treat as linear: log10 of IC50, unit nM

Example results:
                                   molecule   measure_name  reading
0  CCCS(=O)(=O)C1CCCN(S(=O)(=O)NC(=O)c2coc(Nc3cc(C(F)(F)F)ccc3C(C)C)n2)CC1 (centres undefined)  log10 of IC50     1.34
1  CC(C)c1ccc(C(F)(F)F)cc1Nc1nc(C(=O)NS(=O)(=O)N2CCCOCC2)co1  log10 of IC50     1.43
2  COCCN(CCOC)S(=O)(=O)NC(=O)c1coc(Nc2cc(C(F)(F)F)ccc2C)n1  log10 of IC50     2.15
3  Cc1ccc(C(C)C)cc1Nc1nc(C(=O)NS(=O)(=O)N2CCOC(CN(C)C)CC2)co1 (centres undefined)  log10 of IC50     1.94

For every item in the list below, what is its measured log10 of IC50?
1. COC1CCN(S(=O)(=O)NC(=O)c2coc(Nc3cc(C(F)(F)F)ccc3C)n2)C1 (centres undefined)
2. CCCOCC1CCN(S(=O)(=O)NC(=O)c2coc(Nc3cc(C)ccc3C)n2)CCO1 (centres undefined)
3. CCOCC1CCN(S(=O)(=O)NC(=O)c2coc(Nc3cc(C)c(F)cc3C)n2)CCO1 (centres undefined)
4. Cc1ccc(C(F)(F)F)cc1Nc1nc(C(=O)NS(=O)(=O)N2CCCC(CC#N)CC2)co1 (centres undefined)
5. Cc1ccc(C(F)(F)F)cc1Nc1nc(C(=O)NS(=O)(=O)N2CCN(c3ncccn3)CC2)co1

Response:
2.20
1.54
1.08
1.40
3.04

====

IC50, NACHT, LRR and PYD domains-containing protein 3 (Homo sapiens), per-entry values.
Give bare numbers, in µM.

# example entries with known answers
>>> print(df.to_string())
                                   molecule  unit_of_measurement  reading
0  COC[C@@H]1CCCN1S(=O)(=O)NC(=O)c1coc(Nc2cc(C)ccc2C(C)C)n1                   µM     0.27
1  Cc1cn(C(C)C(F)(F)F)nc1Nc1nc(C(=O)NS(=O)(=O)N2CCCOCC2)co1 (centres undefined)                   µM     0.88
2  Cc1ccc(C(C)C)cc1Nc1nc(C(=O)NS(=O)(=O)N(C)C)co1                   µM     0.13

Please turn your attention to the following entry.
In plain terms, Cc1ccc(C(F)(F)F)cc1Nc1nc(C(=O)NS(=O)(=O)N2CCCC(S(=O)(=O)C(C)C)CC2)co1 (centres undefined) has a documented IC50 of 0.027

====

Recorded below: IC50, system NACHT, LRR and PYD domains-containing protein 3 (Homo sapiens, UniProt Q96P20).
Numbers only, in nM.

Illustrative cases are given below, each with its answer.
>>> df
                           molecular_string  measure_name  reading
0  Cc1ccc(C(F)(F)F)cc1Nc1nc(C(=O)NS(=O)(=O)N2CCC(C(F)(F)F)CC2)co1          IC50       31
1  Cc1ccc(C(F)(F)F)cc1Nc1nc(C(=O)NS(=O)(=O)N2CCC(C#N)CC2)co1          IC50       38
2  Cc1cn(C(C)C)nc1Nc1nc(C(=O)NS(=O)(=O)N2CCOCC(F)(F)C2)co1          IC50      280

Proceeding to the next compound to report its IC50.
Summary for this compound, "Cc1ccc(C(F)(F)F)cc1Nc1nc(C(=O)NS(=O)(=O)N(C)CC2CCCCC2)co1" : IC50 is 150
